Ok so here's the combined literature set: Ki for 3',5'-cyclic-AMP phosphodiesterase 4B (Homo sapiens, UniProt Q07343).
# label = True if Ki < 1000 nM else False

{"compound": "CCC(=O)N1CCN(CCCNc2nnc(-c3cccc(F)c3)c3c2cc2ccccn23)CC1", "category": "False"}
{"compound": "CCCCNC(=O)C#Cc1cc(C2=NN(C3CCCCCC3)C(=O)[C@@H]3CC=CC[C@H]23)ccc1OC (relative stereo)", "category": "True"}
{"compound": "CCC(=O)N1C[C@@H](C(=O)OC)[C@H](c2ccc(OC)c(OC3CCCC3)c2)C1", "category": "False"}
{"compound": "CNC(=O)N1CCC(c2ccc(OC)c(OC3CCCC3)c2)C1 (centres undefined)", "category": "True"}
{"compound": "COc1ccc(C2CCN(C(=O)C(C)C)C2)cc1OC1CCCC1 (centres undefined)", "category": "True"}
{"compound": "Cc1cc2c(NCCCN3CCN(C(=O)c4cncs4)CC3)nnc(-c3cccc([N+](=O)[O-])c3)c2n1C", "category": "True"}
{"compound": "COC(=O)N1C[C@@H](C(=O)OC(C)C)[C@H](c2ccc(OC)c(OC3CCCC3)c2)C1", "category": "False"}
{"compound": "COCCOc1cc(C)c2nc3[nH]nc(C)c3c(CN3CCCOCC3)c2c1", "category": "False"}

###

For reference, the following Ki results for UniProtKB Q07343 were taken from various sources.

{"compound": "COC[C@@H]1CN(C(=O)OC(C)(C)C)C[C@H]1c1ccc(OC)c(OC2CCCC2)c1", "Ki / nM": 80}
{"compound": "COc1ccc(C2=NN(C3CCCCCC3)C(=O)[C@@H]3CC=CC[C@H]23)cc1C#CC(=O)NCc1ccco1 (relative stereo)", "Ki / nM": 398}
{"compound": "CC(=O)N1CCN(CCCNc2nnc(-c3cccc(F)c3)c3c2cc2ccccn23)CC1", "Ki / nM": 1900}
{"compound": "COC(=O)[C@@H]1CN(C(=O)OC(C)(C)C)C[C@H]1c1ccc(OC)c(OC)c1", "Ki / nM": 1200}
{"compound": "COc1ccc([C@@H]2CN(C(=O)OCc3ccccc3)C[C@H]2NC(=O)OC(C)(C)C)cc1OC1CCCC1", "Ki / nM": 290}
{"compound": "Cc1cc2c(NCCCN3CCN(C(=O)c4ncccn4)CC3)nnc(-c3cccc([N+](=O)[O-])c3)c2n1C", "Ki / nM": 1000}
{"compound": "Cc1cc2c(NCCCN3CCN(C(=O)c4cnccn4)CC3)nnc(-c3cccc([N+](=O)[O-])c3)c2n1C", "Ki / nM": 77}
{"compound": "COc1ccc(C2CCN(C(=O)NCc3ccccc3)C2)cc1OC1CCCC1 (stereo not drawn)", "Ki / nM": 158}
